From: PubChem BioAssay AID686979

experiment: qHTS for Inhibitors of human tyrosyl-DNA phosphodiesterase 1 (TDP1): qHTS in cells in presence of CPT; settings: chicken DT40 Tdp1-/-;hTDP1 cells + 20 nM CPT, ATP luminescence, 48 h; series mostly up to 46.2 µM; further: nearly all actives have a fitted effect of over 55% in size; further: potency means the concentration at half of the fitted maximal effect
In all, about 420,000 compounds went through this assay and about 50,000 (12%) were called active. Not shown: some 26% with an inconclusive outcome. Only a selection was taken, and actives are over-represented in it overall.
value-type: Potency

[
  {
    "compound": "CN(Cc1cn(Cc2ccc(C(F)(F)F)cc2)nn1)C1CN(Cc2cn(Cc3ccc(C(F)(F)F)cc3)nn2)S(=O)(=O)C1 (stereo not given)",
    "Potency": "6.51 µM (active)"
  },
  {
    "compound": "COc1ccc(OC)c(S(=O)(=O)N2CCCC(C(=O)NCCc3ccccc3)C2)c1 (stereo not given)",
    "Potency": "inactive"
  },
  {
    "compound": "COc1ccc(C(=O)C2CCCN(C(=O)c3cnsn3)C2)c(C)c1 (stereo not given)",
    "Potency": "inactive"
  },
  {
    "compound": "COc1ccc(NC(=O)C2CCCN(S(=O)(=O)c3c(C)[nH]c(=O)[nH]c3=O)C2)c(OC)c1 (stereo not given)",
    "Potency": "inactive"
  },
  {
    "compound": "CN(C)C1CN(Cc2cn(Cc3ccccc3)nn2)S(=O)(=O)C1 (stereo not given)",
    "Potency": "inactive"
  }
]

Answer with the recorded Potency of `CCc1cccc(NC(=O)CCC(=O)O)c1` only.
inactive
